Test system: 521955-158-R2-J5-PDC complex spheroid growth, % test/control
Assay: Anticancer human tumor 521955-158-R2-J5-PDC patient-derived pancreatic carcinoma cell line growth inhibition [Asc]
Conditions: second compound 0.949 µM; first compound 0.0316 µM; hits give low values
Description: Multicellular complex tumor spheroid response to apoptosis pathway targeting inhibitors Alrizomadlin, Pelcitoclax, and Dasminapant in combination with a variety of drugs and investigational agents in selected tumor cell lines […] Compounds. […] If the clinical Cmax for an agent had not been determined, the highest concentration tested was 10 microM. […]
READOUT: viability, T/C (%)
Give bare numbers, in %.

MOLECULE | TESTED SYSTEM | UNIT NAME | TEST VALUE
NC1CCC(NC2CC2c2ccccc2)CC1 (stereo unspecified) + CCN1C(C(=O)NC23CCC(C(=O)O)(CC2)CC3)C(c2cccc(Cl)c2F)C2(C(=O)Nc3cc(Cl)ccc32)C12CCCCC2 | 521955-158-R2-J5-PDC complex spheroid growth, % test/control | % | 62.5

I would be grateful if you could provide viability, T/C for each of the following entries.
1. O=C(c1ccc(F)c(F)c1Nc1ccc(I)cc1F)N1CC(O)([C@@H]2CCCCN2)C1 + CCN1C(C(=O)NC23CCC(C(=O)O)(CC2)CC3)C(c2cccc(Cl)c2F)C2(C(=O)Nc3cc(Cl)ccc32)C12CCCCC2
2. C=CC(=O)N1CCN(c2nc(=O)n(-c3c(C)ccnc3C(C)C)c3nc(-c4c(O)cccc4F)c(F)cc23)C(C)C1 (stereo unspecified) + CCN1C(C(=O)NC23CCC(C(=O)O)(CC2)CC3)C(c2cccc(Cl)c2F)C2(C(=O)Nc3cc(Cl)ccc32)C12CCCCC2

1: 82.4; 2: 107

I would be grateful if you could provide viability, T/C for each of the following entries.
1. Cn1ncnc1[C@H]1c2n[nH]c(=O)c3cc(F)cc(c23)N[C@@H]1c1ccc(F)cc1 + CCN1C(C(=O)NC23CCC(C(=O)O)(CC2)CC3)C(c2cccc(Cl)c2F)C2(C(=O)Nc3cc(Cl)ccc32)C12CCCCC2
2. CNC(C)C(=O)NC1CN(S(=O)(=O)c2cccc(S(=O)(=O)N3CCC4CCC(C(=O)NC(c5ccccc5)c5ccccc5)N4C(=O)C(NC(=O)C(C)NC)C3)c2)CCC2CCC(C(=O)NC(c3ccccc3)c3ccccc3)N2C1=O (stereo unspecified) + CCN1C(C(=O)NC23CCC(C(=O)O)(CC2)CC3)C(c2cccc(Cl)c2F)C2(C(=O)Nc3cc(Cl)ccc32)C12CCCCC2
3. O=C(c1cc(Cc2n[nH]c(=O)c3ccccc23)ccc1F)N1CCN(C(=O)C2CC2)CC1 + CCN1C(C(=O)NC23CCC(C(=O)O)(CC2)CC3)C(c2cccc(Cl)c2F)C2(C(=O)Nc3cc(Cl)ccc32)C12CCCCC2

1. 94.2
2. 158
3. 123

====

What viability, T/C was measured for each of the following?
Test system: 521955-158-R2-J5-PDC complex spheroid growth, % test/control
Experiment: Anticancer human tumor 521955-158-R2-J5-PDC cell line growth inhibition [Asc];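 note: spheroids exposed to agents for 7 days before readout; 100% = DMSO vehicle control viability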
Details: second compound 0.316 µM; first compound 10 µM; hits give low values
Answers are plain numbers, in %.

See these solved cases before continuing.
COMPOUND | TESTED SYSTEM | viability, T/C, %
C#Cc1c(F)ccc2cc(O)cc(-c3ncc4c(N5CC6CCC(C5)N6)nc(OCC56CCCN5CC(F)C6)nc4c3F)c12 (stereo not given) + Cc1c(S(C)(=O)=O)c(-c2cc(F)cc(N3CCN(c4ccc(NS(=O)(=O)c5ccc(NC(CCN6CCC(C(=O)OCCCP(=O)(O)O)CC6)CSc6ccccc6)c(S(=O)(=O)C(F)(F)F)c5)cc4)CC3)c2)c(-c2ccc(Cl)cc2)n1C(C)C | 521955-158-R2-J5-PDC complex spheroid growth, % test/control | 34.4
C=CC(=O)N1CCN(c2nc(=O)n(-c3c(C)ccnc3C(C)C)c3nc(-c4c(O)cccc4F)c(F)cc23)C(C)C1 (stereo not given) + CNC(C)C(=O)NC1CN(S(=O)(=O)c2cccc(S(=O)(=O)N3CCC4CCC(C(=O)NC(c5ccccc5)c5ccccc5)N4C(=O)C(NC(=O)C(C)NC)C3)c2)CCC2CCC(C(=O)NC(c3ccccc3)c3ccccc3)N2C1=O | 521955-158-R2-J5-PDC complex spheroid growth, % test/control | 95.2
C#Cc1c(F)ccc2cc(O)cc(-c3ncc4c(N5CC6CCC(C5)N6)nc(OCC56CCCN5CC(F)C6)nc4c3F)c12 (stereo not given) + CNC(C)C(=O)NC1CN(S(=O)(=O)c2cccc(S(=O)(=O)N3CCC4CCC(C(=O)NC(c5ccccc5)c5ccccc5)N4C(=O)C(NC(=O)C(C)NC)C3)c2)CCC2CCC(C(=O)NC(c3ccccc3)c3ccccc3)N2C1=O | 521955-158-R2-J5-PDC complex spheroid growth, % test/control | 13.9
C=CC(=O)N1CCN(c2nc(=O)n(-c3c(C)ccnc3C(C)C)c3nc(-c4c(O)cccc4F)c(F)cc23)C(C)C1 (stereo not given) + Cc1c(S(C)(=O)=O)c(-c2cc(F)cc(N3CCN(c4ccc(NS(=O)(=O)c5ccc(NC(CCN6CCC(C(=O)OCCCP(=O)(O)O)CC6)CSc6ccccc6)c(S(=O)(=O)C(F)(F)F)c5)cc4)CC3)c2)c(-c2ccc(Cl)cc2)n1C(C)C | 521955-158-R2-J5-PDC complex spheroid growth, % test/control | 83.7

Now turn to the next compound.
Returns the measured viability, T/C for the input compound. Input: O=C(c1cc(Cc2n[nH]c(=O)c3ccccc23)ccc1F)N1CCN(C(=O)C2CC2)CC1 + Cc1c(S(C)(=O)=O)c(-c2cc(F)cc(N3CCN(c4ccc(NS(=O)(=O)c5ccc(NC(CCN6CCC(C(=O)OCCCP(=O)(O)O)CC6)CSc6ccccc6)c(S(=O)(=O)C(F)(F)F)c5)cc4)CC3)c2)c(-c2ccc(Cl)cc2)n1C(C)C
63.2
